The following molecules are listed with their measured %Inh values.
- System: ANKK1;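 further: KINOMEscan kinase panel screen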
- CONDITION_DETAILS: concentration: 1 μM, replicates: in singlicate; n = 1
PARAMETER_MEASURED: %Inh (%)

MOLECULE | READING_UNIT | READOUT_VALUE
COc1ccc(Nc2nccc(N3CCC(NC(=O)c4cc5ccccc5s4)C3)n2)cc1 (centres unmarked) | % | 3
O=C(Nc1n[nH]c2nc(-c3cccs3)c(Br)cc12)C1CC1 | % | 9
O=C1NC(=O)C(c2ccc(Cl)cc2)=C1Nc1cccc(Cl)c1 | % | 0
CNc1nc(-c2ccc3c(N)n[nH]c3c2)cc(N2C[C@@H](C(=O)Nc3ccccc3)CC[C@H]2C)n1 | % | 1
Cc1cnc(N)c(/C=C/c2cncc(C(=O)NCCc3ccc(Cl)cc3Cl)c2)c1.Cl | % | 3
